- measured_on: HIV-1 integrase wild-type (IN1-288) (Human immunodeficiency virus 1, UniProt P04585 P04585:1148-1435)
- protocol_summary: inhibition; 3'-processing column as printed; strand transfer column 0.129
- test_context: G4
observation_type: pIC50
The value called pIC50 is obtained by taking minus log10 of the concentration in mol/L.

Return value of pIC50 for input GTGGGTGGTGGGTGGGT (structured_DNA, C-5 propynyl dU at capital T; PS at first and last linkage) [T30722] , no commentary.
6.87
